Quick reference: IC50 of the listed items.
Biological target: Human Tryptophan 2,3-dioxygenase (TDO) (Homo sapiens)
Construct: His tag (N); made in house; host or cells: E. coli
Sequence (P48775 whole entry): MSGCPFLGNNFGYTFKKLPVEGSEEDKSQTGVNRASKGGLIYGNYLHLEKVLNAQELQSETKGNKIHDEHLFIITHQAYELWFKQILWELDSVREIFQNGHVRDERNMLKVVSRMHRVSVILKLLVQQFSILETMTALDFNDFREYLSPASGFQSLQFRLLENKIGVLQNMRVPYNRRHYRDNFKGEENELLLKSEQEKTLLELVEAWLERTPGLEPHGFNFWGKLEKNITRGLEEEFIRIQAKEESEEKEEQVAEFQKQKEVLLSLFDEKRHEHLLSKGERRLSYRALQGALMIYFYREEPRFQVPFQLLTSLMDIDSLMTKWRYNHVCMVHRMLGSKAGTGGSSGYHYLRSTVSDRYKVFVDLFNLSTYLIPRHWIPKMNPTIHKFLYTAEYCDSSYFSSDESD
Assay: Human TDO enzymatic assay (kynurenine level)
Assay type: biochemical
Conditions: 1 nM TDO, 350 μM L-Trp; geometric mean; read-out: TDO GMean: IC50 (μM) (Biochemical Assay)

Example results:
Data request: So what's the measured IC50 for this one? OC(c1ccc(OC(F)(F)F)cc1)c1cccc2cncn12 (centres unmarked) [Compound P-0065]
Data returned: 10 to 100 µM

Data request: So what's the measured IC50 for this one? CC(C)(C(O)c1cc(Cl)cc2cn[nH]c12)[C@H]1C[C@H]2CC[C@@H](C1)N2C(=O)Nc1ccc(F)cc1 (some centres unmarked) [Compound P-0440]
Data returned: 0.0001 to 10 µM

Data request: So what's the measured IC50 for this one? CC(C)(C1CCN(C(=O)Nc2ccccc2Cl)CC1)C(O)c1cc(Cl)cc2cn[nH]c12 (centres unmarked) [Compound P-0184]
Data returned: 0.0001 to 10 µM

---
Data request: So what's the measured IC50 for this one? Cc1cc(N2CCN(S(C)(=O)=O)C(C)(C)C2)c2[nH]ncc2c1 [Compound P-0090]
Data returned: 0.0001 to 10 µM

Data request: So what's the measured IC50 for this one? CC(C)(C)OC(=O)N1CCC(C(F)(F)C(O)c2cc(Cl)cc3cn[nH]c23)CC1 (centres unmarked) [Compound P-0469]
Data returned: 0.0001 to 10 µM

Data request: So what's the measured IC50 for this one? NC(=O)N1CCC(C(F)(F)C(O)c2c(F)c(Cl)cc3cn[nH]c23)CC1 (centres unmarked) [Compound P-0379]
Data returned: 0.0001 to 10 µM

Data request: So what's the measured IC50 for this one? COC(=O)N1CCC(C(C)(C)C(O)c2cc(Cl)cc3cn[nH]c23)CC1 (centres unmarked) [Compound P-0321]
Data returned: 0.0001 to 10 µM

Data request: So what's the measured IC50 for this one? CC1(C(O)c2c(Cl)ccc3cn[nH]c23)CCCCC1 (centres unmarked) [Compound P-0207]
Data returned: 10 to 100 µM

Each recorded value in this set is attributed to patent US10508085B2.
